system: Bacillus subtilis; experiment: cleaved RNA product abundance (RNA/gDNA barcode ratio) relative to median wild-type variant (ratio to wild type); higher = more accumulation of the downstream cleavage product; settings: experiment (reporter, strain, medium): exp 4a: truncated aprE reporter, strain BJT201 with 2% xylose (RNase J1 expressed); cleavage site: cggR-gapA (positions -7 to +36 mutated)
Collected cleaved RNA product abundance values appear next to each entry.
Give the value as a plain number.

ACAGACGAAGGAGCCGCAAAGAAGTTATTAAGGGATGAATAACACCTCAATATAAATATCTCTCACTTATTTAAA ... 0.164

Task item: Would you kindly share the measured cleaved RNA product abundance for ACAGACGAAGGAGCCGCAAAGAAGTTATTATGGAATGAATAATCCCTCAATATAAATATCTCTCACTTATTTAAA ?
Reply: 0.105

Task item: Endpoint output: cleaved RNA product abundance of ACAGACGAAGGAGCCGCAAAGAAGTTATTAATGGATGAATAATCCCTCTATATAAATATCTCTCACTTATTTAAA . Value?
Reply: 0.143

Task item: Please report the recorded cleaved RNA product abundance for ACAGACGAAGGAGCCGCAAAGAAGTTATTAAGGGCTGAATAATCCCTTAATATAAATATCTCTCACTTATTTAAA .
Reply: 0.626
